- target-desc: 3-hydroxyacyl-CoA dehydrogenase type-2 (Homo sapiens) (UniProt Q99714)
- assay-name: qHTS Assay for Inhibitors of HSD17B4, hydroxysteroid (17-beta) dehydrogenase 4;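 also: the protocol describes HADH2 (HSD17B10) and not the HSD17B4 of the title; nearly all actives have a fitted effect of over 70% in size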
- condition-notes: recombinant HSD17B10, NADH fluorescence kinetic; series mostly up to 57.1 µM
Hit rate of the full screen: of about 75,000 compounds, about 5,700 (7.6%) were called active. Roughly 7% stayed inconclusive and do not appear here. Calls follow the shape of the dose curve; as a rule, active = well fitted inhibition curve with a large enough effect; inconclusive = small, poorly fitted or top-dose-only effect; inactive = no such curve, though single readings can be large or run the other way. This is one part of a sample in which actives are shown more often than they occur.
Response enum: true = active, false = inactive

Examples with answers:
COc1ccc(CCN(Cc2cc3cccc(C)c3[nH]c2=O)C(=O)N2CCCC2)cc1OC :: false
CCOC(=O)c1cc(-c2nnc(-c3cc(OC)c(OC)c(OC)c3)o2)c(C)nc1C :: true
COc1ccc(CCN=C2SCC(=O)N2C)cc1OC :: false
CCOC(=O)N1CCC(NC(=O)Cc2cn(C)c3ccccc23)CC1 :: false
CCCN1C(=O)C(NC(C)=O)c2cc(OC)ccc21 (configuration not stated) :: false

Ask | Per the records of this test, what outcome belongs to `O=C(O)C1=CCCN(CCON=C(c2ccccc2)c2ccccc2)C1` ?
Reply | false
